assay: qHTS assay to identify small molecule agonists of the endoplasmic reticulum stress response signaling pathway - cell viability counter screen (AID 1159517); conditions: ESRE-bla HeLa viability, CellTiter-Glo luminescence, 5 h; series mostly up to 61 µM;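 note: HeLa cells carrying an ER stress response element beta-lactamase reporter; % is set by controls: 0 for no effect and ±100 for the full control effect; nearly all actives have a fitted effect of over 50% in size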
Results filed as inconclusive are left out. Calls of active or inactive are those of the source. Calls come from the whole dose curve.
metric-name: activity change, negative = cytotoxicity

Here is how some compounds turned out for activity change, negative = cytotoxicity.
- compound: "Cc1ccccc1C(=O)Nc1ccc(C(=O)N2CCCC(N(C)C)c3ccccc32)cc1 (configuration not stated)"
  activity change, negative = cytotoxicity: "inactive"
- compound: "CN1CCN(CC(=O)N2c3ccccc3C(=O)Nc3cccnc32)CC1"
  activity change, negative = cytotoxicity: "-3.52% [at 6.95 µM] (inactive)"
- compound: "O=C(c1ccc(O)cc1)c1ccc(O)c(O)c1O"
  activity change, negative = cytotoxicity: "inactive"
- compound: "O=Cc1ccc(Cl)c(Cl)c1"
  activity change, negative = cytotoxicity: "inactive"
- compound: "COCCOCCOCCOCCOCCO"
  activity change, negative = cytotoxicity: "inactive"
- compound: "COCCOCCOCCOCCO"
  activity change, negative = cytotoxicity: "inactive"

The record that follows has no activity change, negative = cytotoxicity shown yet.
## Task Param item = C#CC(C)N(C)C(=O)Nc1ccc(Cl)cc1 (configuration not stated) ; retrieve measured activity change, negative = cytotoxicity.
## Result inactive

###

assay: qHTS assay to test for compound auto fluorescence at 535 nm (green) in HEK293 cells (AID 720680); conditions: green autofluorescence 485/535 nm; series mostly up to 91.3 µM; note: % is set by controls: 0 for no effect and ±100 for the full control effect
Active and inactive are the calls of the source. The call rests on the fitted dose curve; in most records, active means well fitted curve in the direction sought with a large enough effect in the repeat runs; inconclusive means weak or mixed curves; inactive means flat fitted curve, though single readings scatter.
metric-name: fluorescence, % of fluorescein

As a guide, the following entries are already answered.
- compound: "O=C(O)Cc1cn(-c2ccccc2)nc1-c1ccc(Cl)cc1"
  data-value: "inactive"
- compound: "COC(=O)CCCCCCCC(=O)OC"
  data-value: "inactive"
- compound: "Nc1nnc(-c2cccc(Cl)c2Cl)c(N)n1"
  data-value: "inactive"
- compound: "C[C@@H]1O[C@@H](O[C@@H]2[C@@H](O)[C@H](OCCc3ccc(O)c(O)c3)O[C@H](CO[C@@H]3O[C@H](CO)[C@@H](O)[C@H](O)[C@H]3O)[C@H]2OC(=O)/C=C/c2ccc(O)c(O)c2)[C@H](O)[C@H](O)[C@H]1O"
  data-value: "inactive"
- compound: "CC(=O)c1sc(C)nc1C"
  data-value: "inactive"

## Task Return reported fluorescence, % of fluorescein; argument: `Cc1cccc2nccnc12`
## Result inactive

## Task Tell me the measured fluorescence, % of fluorescein of CC(CO)c1ccccc1 (stereo unspecified) , please.
## Result inactive

## Task Fill in the blank: the reported fluorescence, % of fluorescein of `Nc1ccc2cc(S(=O)(=O)O)cc(O)c2c1` is ____.
## Result inactive

## Task Reported fluorescence, % of fluorescein, compound `ClCCCl` : ____
## Result inactive

## Task Endpoint output: fluorescence, % of fluorescein of COC(=O)C1CC(=O)C(C(=O)OC)CC1=O (stereo unspecified) . Value?
## Result -0.0599% [at 3.72 µM] (inactive)

## Task Find the recorded fluorescence, % of fluorescein belonging to CC(C)NCC(O)COc1cccc2[nH]ccc12 (stereo unspecified) and report it.
## Result inactive

## Task What value of fluorescence, % of fluorescein has been reported for the following compound? `CCN(CC)CC(=O)Nc1c(C)cccc1C`
## Result inactive

## Task # lookup: fluorescence, % of fluorescein of CCCOC(=O)C(C)O (stereo unspecified)
## Result inactive

## Task GET /values?readout=fluorescence, % of fluorescein&item= `CC(=O)CCCCn1c(=O)c2c(ncn2C)n(C)c1=O`
## Result 0.0863% [at 18.6 µM] (inactive)

## Task # input compound: `C[C@H](CCC(=O)O)[C@H]1CC[C@H]2[C@@H]3C(=O)C[C@@H]4CC(=O)CC[C@]4(C)[C@H]3CC(=O)[C@]12C` ; wanted: its fluorescence, % of fluorescein
## Result inactive

## Task Entry under review: `CCCC/C=C\CCCCCCCCCC=O` . Reported fluorescence, % of fluorescein?
## Result inactive

## Task Query: fluorescence, % of fluorescein; subject: `O=C(c1ccc(O)cc1)c1ccc(O)c(O)c1O`
## Result inactive

## Task Bench note: what fluorescence, % of fluorescein did `c1ccc2nccnc2c1` show?
## Result inactive

## Task For `O=C(O)Cc1ccc(Cl)cc1Cl` , what is its reported fluorescence, % of fluorescein?
## Result inactive

## Task What measured fluorescence, % of fluorescein goes with C#CC(C)N(C)C(=O)Nc1ccc(Cl)cc1 (stereo unspecified) ?
## Result inactive

## Task Requested read-out: fluorescence, % of fluorescein. Entry: `CCOCCOCCOCC`
## Result inactive

###

test: qHTS assay to identify small molecule agonists of H2AX (AID 1224845); settings: CHO-K1 phospho-H2AX Ser139 HTRF, 3 h; series mostly up to 154 µM; note: % is set by controls: 0 for no effect and ±100 for the full control effect
Records with an inconclusive call do not appear. Activity calls are given as the source filed them. The call rests on the fitted dose curve; in most records, active means well fitted activation curve with a large enough effect in the signal ratio in the repeat runs (not every such curve was filed as active); inconclusive means weak or mixed curves; inactive means flat fitted curve, though single readings scatter; the % refers to the signal ratio.
metric-name: activation (H2AX phosphorylation)

- compound: "CCn1ccc(NS(=O)(=O)c2ccc(N)cc2)nc1=O"
  activation (H2AX phosphorylation): "inactive"
- compound: "CCCCCCCC/C=C\\CCCCCCCC(=O)OCCCC"
  activation (H2AX phosphorylation): "4.47% [at 31.6 µM] (inactive)"
- compound: "BrCCCCCBr"
  activation (H2AX phosphorylation): "inactive"
- compound: "O=C1c2cccc3c2[C@H](CCC3)CN1[C@@H]1CN2CCC1CC2"
  activation (H2AX phosphorylation): "inactive"
- compound: "COc1ccc(C2CNC(=O)C2)cc1OC1CCCC1 (stereo unspecified)"
  activation (H2AX phosphorylation): "inactive"

## Task // activation (H2AX phosphorylation) lookup, key: `CCCCCCCCSCC`
## Result inactive

## Task Param item = CC(C)C[C@H](NC(=O)CNC(=O)[C@H](Cc1ccc(O)cc1)NC(=O)[C@H](CO)NC(=O)[C@H](Cc1c[nH]c2ccccc12)NC(=O)[C@H](Cc1cnc[nH]1)NC(=O)[C@@H]1CCC(=O)N1)C(=O)N[C@@H](CCCN=C(N)N)C(=O)N1CCC[C@H]1C(=O)NCC(N)=O (stereo in doubt) ; retrieve measured activation (H2AX phosphorylation).
## Result inactive

## Task Report activation (H2AX phosphorylation) for `CC(C)=CCOC(=O)c1ccccc1` please.
## Result inactive

## Task Look at this compound and give its reported activation (H2AX phosphorylation). `NCCS`
## Result inactive

## Task Please give the measured activation (H2AX phosphorylation) for this compound: `COc1cc2c(cc1OC)C(=O)CC2`
## Result inactive

## Task // query activation (H2AX phosphorylation) value for entry `C[Si](C)=O`
## Result -1.6% [at 14 µM] (inactive)

###

assay: qHTS assay to identify small molecule agonists of the estrogen related receptor (ERR) signaling pathway from Tox21 library (AID 1224849); details: ERR reporter cell line, ONE-Glo luciferase, 18 h; at 92.4 µM (top of the series) unless noted; note: % is set by controls: 0 for no effect and ±100 for the full control effect; nearly all actives have a fitted effect of over 15% in size
Activity calls are given as the source filed them. Calls come from the whole dose curve.
metric-name: activity change, positive = activation

Known results for molecules:
- molecule: "CC(C(=O)O)c1ccc2c(c1)CC(=O)c1ccccc1S2 (centres undefined)"
  data-value: "4.13% [at 42.5 µM] (inactive)"
- molecule: "O=C(O)c1cc(Cl)cc([N+](=O)[O-])c1Cl"
  data-value: "-9.65% (inactive)"
- molecule: "OC[C@H](Cc1cccc(O)c1)[C@H](CO)Cc1cccc(O)c1"
  data-value: "-21.1% (inactive)"
- molecule: "CCc1ccc(C=O)cc1"
  data-value: "5.25% (inactive)"
- molecule: "CC(=O)/C=C/C1C(C)=CCC(C)C1(C)C (centres undefined)"
  data-value: "-6.15% (inactive)"
- molecule: "O=S(=O)(O)CCN1CCN(CCO)CC1"
  data-value: "9.7% (inactive)"
- molecule: "CCCCOC(=O)c1ccccc1"
  data-value: "1.54% (inactive)"
- molecule: "CC(C)CCCCOC(=O)c1ccccc1C(=O)OCCCCC(C)C"
  data-value: "-6.44% (inactive)"

Consider now this further molecule.
## Task Dear colleague, I am looking for the recorded activity change, positive = activation of the following molecule: `CN(C)c1ccc(C=O)cc1`
## Result 0.183% (inactive)

###

experiment: qHTS assay to identify small molecule agonists of the hypoxia (HIF-1) signaling pathway (AID 1224846); settings: HRE-bla ME-180 cells, beta-lactamase ratio, 17 h; series mostly up to 76.8 µM; note: % is set by controls: 0 for no effect and ±100 for the full control effect
Records with an inconclusive call do not appear. Calls of active or inactive are those of the source. Calls come from the whole dose curve; as a rule, active = well fitted activation curve with a large enough effect in the signal ratio in the repeat runs (not every such curve was filed as active); inconclusive = weak or mixed curves; inactive = flat fitted curve, though single readings scatter; the % refers to the signal ratio.
metric-name: activation

Use these answered entries as a reference point.
- compound: "Oc1cn2c(n1)Nc1ccc(Cl)c(Cl)c1C2"
  activation: "-0.566% [at 15.8 µM] (inactive)"
- compound: "CCCCCCCC/C=C\\CCCCCCCC(=O)OCCCC"
  activation: "-1.44% [at 15.8 µM] (inactive)"
- compound: "O=C(OCC(O)CO)c1ccccc1Nc1ccnc2c(C(F)(F)F)cccc12 (centres undefined)"
  activation: "inactive"
- compound: "CC(C)(C)NC(N)=O"
  activation: "inactive"
- compound: "CC/C=C\\CC1=C(C)CCC1=O"
  activation: "inactive"
- compound: "CC(C)(C)c1n[nH]c(=S)n(N)c1=O"
  activation: "inactive"

## Task Can you share its activation? I mean this compound: `O=C(Nc1ccc(Cl)c(Cl)c1)C1CC1`
## Result inactive

## Task // activation lookup, key: `C[C@H](N)[C@H](O)c1cccc(O)c1`
## Result inactive

## Task Fill in the blank: the reported activation of `COC(=O)c1ccccc1C(=O)c1ccc(OCCN2CCCCC2)cc1` is ____.
## Result inactive

## Task # query: activation of entry `CC(C)(C)OC(=O)c1ccc(O)cc1`
## Result inactive

## Task What value of activation has been recorded for this entry: `N[C@@H](CCC(=O)Nc1ccc([N+](=O)[O-])cc1)C(=O)O`
## Result inactive

## Task Form field: reported activation of `CC(C)CCCC(C)(C)O`
## Result inactive

## Task Bench note: what activation did `CN(C)CCOCCO` show?
## Result inactive

## Task Can you share its activation? I mean this compound: CC1COc2ccccc2N1 (centres undefined)
## Result inactive
